These data points were gathered from PubChem BioAssay AID686979.

- PROCEDURE_DETAILS: qHTS for Inhibitors of human tyrosyl-DNA phosphodiesterase 1 (TDP1): qHTS in cells in presence of CPT; further: nearly all actives have a fitted effect of over 55% in size
- COND: chicken DT40 Tdp1-/-;hTDP1 cells + 20 nM CPT, ATP luminescence, 48 h; series mostly up to 46.2 µM
Hit rate of the full screen: of about 420,000 compounds, about 50,000 (12%) were called active. Not shown: some 26% with an inconclusive outcome. The call rests on the fitted dose curve; in most records, active means well fitted inhibition curve with a large enough effect; inconclusive means small, poorly fitted or top-dose-only effect; inactive means flat fitted curve, though single readings scatter. The list comes from a sample in which actives are over-represented; it also holds close analogues and randomly drawn compounds.
Possible outcomes: active, inactive

MOLECULE	ASSIGNED_CATEGORY
Cc1ccc(Cl)cc1N1CCN(C(=O)c2cn(C)c3ccc(S(=O)(=O)N(C)C4CCCCC4)cc3c2=O)CC1	inactive
CCn1cc(C(=O)N(C)Cc2ccccc2)c(=O)c2cc(S(=O)(=O)N3CCCCCC3)ccc21	inactive
Cc1ccc(S(=O)(=O)n2cccc2CO)cc1	inactive
CC(=O)C1C(c2ccc(Cl)cc2)NC(=O)NC1(O)C(F)(F)F (stereo unspecified)	inactive
O=C(CCN1C(=O)c2ccccc2C1=O)NCCCn1ccnc1	inactive
O=c1n(Cc2cccc(C(F)(F)F)c2)c2ccccc2c2nc(-c3ccccc3)nn12	active
O=C(COC(=O)c1cccnc1Cl)Nc1ccc(S(=O)(=O)N2CCOCC2)cc1	inactive
Cc1ccc(CNC(=O)CSc2nnc3c(n2)[nH]c2ccc(F)cc23)cc1	inactive
COc1ccc(Cl)cc1-n1c(CCC(=O)O)ccc1-c1ccc(C)cc1	inactive
Nc1nc(SCC(=O)NN(c2ccccc2)c2ccccc2)n[nH]1	inactive
O=C(C[C@H]1CC[C@H]2[C@@H](COC[C@H](O)CN2C(=O)c2ccccn2)O1)N1CCN(c2ccccc2)CC1	inactive
C=CCOc1ccccc1NC(=O)CN1C(=O)CNC1=O	inactive
O=C1NC(c2ccc(-c3ccccc3[N+](=O)[O-])o2)C(C(=O)c2ccc(Cl)cc2)C(O)(C(F)(F)F)N1 (stereo unspecified)	active
Cc1cc(N2CCN(c3cccc(C(F)(F)F)c3)CC2)n2nc(-c3ccccc3)nc2n1	inactive
CC1CCCCC1NC(=O)Cn1c(=O)cnc2ccccc21 (stereo unspecified)	inactive
CCn1cc(C(=O)NC2CCCCCC2)c(=O)c2cc(S(=O)(=O)N3CCCCC3)ccc21	active
Cc1c(C(=O)NCC2CCCN(C)C2)cnn1-c1nccc(-c2ccco2)n1 (stereo unspecified)	inactive
COc1ccc(C)cc1-n1c(-c2ccc(C)cc2)cc2c1CC(C)(C)CC2=O	active
CC(C)(C)NC(=O)Cn1c(SCC(=O)Nc2nccs2)nc2ccccc21	inactive
CC(=O)N1CCN(Cc2cc(=O)oc3cc(C)ccc23)CC1	inactive
COc1ccc(N(CC(=O)Nc2cccc3ccccc23)S(C)(=O)=O)c(OC)c1	inactive

###

- PROCEDURE_DETAILS: qHTS for Inhibitors of human tyrosyl-DNA phosphodiesterase 1 (TDP1): qHTS in cells in presence of CPT; further: nearly all actives have a fitted effect of over 55% in size
- COND: chicken DT40 Tdp1-/-;hTDP1 cells + 20 nM CPT, ATP luminescence, 48 h; series mostly up to 46.2 µM
Among all 420,000 compounds or so, about 50,000 (12%) were called active. Inconclusive results (about 26%) are left out. The call rests on the fitted dose curve; in most records, active means well fitted inhibition curve with a large enough effect; inconclusive means small, poorly fitted or top-dose-only effect; inactive means flat fitted curve, though single readings scatter. The sample as a whole holds a higher share of actives than the screen did.
Possible outcomes: yes = active, no = inactive

COMPOUND	ASSIGNED_CATEGORY
Cc1nc(COc2cccc(Cl)c2)sc1C(=O)/C=C/N(C)C	no
CC(=O)Nc1ccc(S(=O)(=O)Oc2ccc(Br)cc2C(=S)N2CCOCC2)cc1	no
Cc1ccc(S(=O)(=O)N2CCOCC2)cc1C(=O)Nc1ccccc1N1CCCC1	no
COc1ccc2c(CN3CCN(S(=O)(=O)c4cccs4)CC3)cc(=O)oc2c1	no
Cc1cc(Nc2ccc(N3CCOCC3)cc2)c2cccc(C)c2n1	no
O=C(c1cc(COc2c(F)cccc2F)on1)N1CCSCC1	no
CC(C)(C)Nc1c(N)c(=O)oc2ccccc12	no
O=C(OCC(=O)N1CCCCCC1)c1ccc(Br)c(S(=O)(=O)N2CCOCC2)c1	no
Cc1ccc(-n2ncc3c(=O)n(-c4ccc(C)c(C)c4)c(-c4ccco4)nc32)cc1	yes
CCOC(=O)C[C@H]1c2ccc(C(F)(F)F)cc2S(=O)(=O)N1c1ccccc1	no
Cc1ccc(S(=O)(=O)N2CC[C@H]3[C@@H](C2)C(=O)C[C@@H](c2ccccc2)N3S(=O)(=O)c2ccc(C)cc2)cc1	no
Cc1oc(-c2ccccc2Cl)[n+]([O-])c1C	yes
O=C(C[C@@H]1C/C=C\CCC(=O)OC[C@@H]2CCCN2C1=O)NCCO	no
CN(C)/C=C/C(=O)c1ccccc1F	no
CCCCc1ccc(NC(=O)CN2C(=O)NC(Cc3ccccc3)C2=O)cc1 (stereo not given)	no
O=c1c2ccccc2ncn1CCCCOc1ccccc1F	no
CCc1nonc1NC(=O)c1oc2ccc(Cl)cc2c1C	no
CCOc1cc(C(=S)N2CCOCC2)ccc1OS(=O)(=O)c1ccc(Br)cc1	no
CN1CCC(OC(=O)COc2ccc(Cl)cc2Cl)CC1	no
Cc1ccc(-c2nc3c(cnn3-c3ccccc3)c(=O)o2)cc1	no
COc1ccc(C2CC(=O)Oc3ccc(C(C)(C)C)cc32)cc1 (stereo not given)	no
O=C1C(=O)N(CCCN2CCOCC2)C(c2ccc([N+](=O)[O-])cc2)/C1=C(\O)c1ccc2c(c1)OCCO2 (stereo not given)	no
Cc1cccc(OCCC(=O)OCc2csc(CC(=O)Nc3ccccc3C)n2)c1	no
CC(=O)NN1C(=O)c2ccccc2NC1c1ccccc1 (stereo not given)	no
Cc1nc(-c2ccccc2)sc1C(=O)/C=C/c1ccccc1	yes
c1cnc(Nc2nc(-c3ccc4ccccc4c3)cs2)nc1	yes
COc1ccccc1C(=O)NC(CCSC)C(=O)NNC(=O)c1csc(N2CCOCC2)n1 (stereo not given)	no
CCCc1cc(=O)oc2c(C)c(OCC(=O)Nc3ccccn3)ccc12	no
O=S(=O)(Nc1cccc(-n2cnnn2)c1)c1cnc(Cl)c(Cl)c1	no
CC[C@@H]1CC2=C(C(=O)OC(C)(C)O2)[C@@H](CC)O1	no
CC(Oc1ccc(Cl)cc1)c1ccnn1S(C)(=O)=O (stereo not given)	no
O=S(=O)(c1cccs1)N1CCN(Cc2ccccc2)CC1	no
Cc1cccc(-c2nnc(SCC(=O)O)n2Cc2ccccc2)c1	no
O=c1oc2ccccc2c(NC2CCCCC2)c1NS(=O)(=O)c1ccc(Cl)cc1	no
CCOC(=O)c1ccc(NC(=O)c2c(N)n(C)c(=O)[nH]c2=O)cc1	no
CCCc1cc(=O)oc2c(C)c(OCC(=O)NCc3ccccn3)ccc12	no
CCN(C(=O)CSc1cccc[n+]1[O-])c1ccccc1	no
COC(=O)c1ccccc1NC(=O)c1ccc(COc2ccccc2Cl)o1	no
Cc1ccc(NC(=O)C2(N3CCC3=O)CCCCC2)cc1	no
Cc1cc2oc(=O)cc(CN3CCN(S(=O)(=O)c4cccs4)CC3)c2cc1C(C)C	yes
CNc1nc(Nc2ccc(C)c(Cl)c2)nc(N)c1[N+](=O)[O-]	no
Cc1ccc(SCC(=O)c2sc(-c3ccccc3)nc2C)cc1	no
O=C(NC1CC(=O)N(c2ccc(Cl)cc2)C1)C1CCCC1 (stereo not given)	no
Cc1nc(-c2ccc(Cl)cc2)sc1C(=O)NN	no
CCOc1ccc(-c2nonc2NC(=O)c2oc3ccc(CC)cc3c2C)cc1	yes

###

- PROCEDURE_DETAILS: qHTS for Inhibitors of human tyrosyl-DNA phosphodiesterase 1 (TDP1): qHTS in cells in presence of CPT; further: nearly all actives have a fitted effect of over 55% in size
- COND: chicken DT40 Tdp1-/-;hTDP1 cells + 20 nM CPT, ATP luminescence, 48 h; series mostly up to 46.2 µM
Hit rate of the full screen: of about 420,000 compounds, about 50,000 (12%) were called active. Another 26% or so got no clear call; they are omitted. The call rests on the fitted dose curve; in most records, active means well fitted inhibition curve with a large enough effect; inconclusive means small, poorly fitted or top-dose-only effect; inactive means flat fitted curve, though single readings scatter. This is one part of a sample in which actives are shown more often than they occur.
Possible outcomes: active, inactive

COMPOUND	ASSIGNED_CATEGORY
CCn1c(SCC(=O)N/N=C/C=C/c2ccccc2[N+](=O)[O-])nnc1-c1ccccc1	inactive
C/C(=N\Nc1ccccc1)c1cccs1	inactive
NC(=O)CSc1oc(-c2cccs2)nc1S(=O)(=O)c1ccccc1	inactive
C/C(=N\Nc1nc(Nc2ccccc2)nc(N2CCOCC2)n1)c1cccs1	active
C/C(=N\Nc1nc(N2CCOCC2)nc(N2CCOCC2)n1)c1ccc([N+](=O)[O-])cc1	inactive
Cc1ccc(F)cc1NC(=O)c1cccc(N(C)C)c1	inactive
Cc1cccc(NC(=O)CSc2nc(-c3ccco3)cc(C(F)(F)F)n2)c1C	active
Cc1cc(C)cc(NC(=O)NC2CCCCCCC2)c1	inactive
Cc1cc(OC(=O)c2ccc(OC(C)C)cc2)c([N+](=O)[O-])c(=O)[nH]1	inactive
CC(C)COc1ccc(C(=O)OCC(=O)NCCC2=CCCCC2)cc1	inactive
Cc1ccc(CSc2ccc(S(=O)(=O)N3CCCCC3)cn2)cc1	inactive
COc1cc(N2C(=O)CSC2=S)cc(OC)c1OC	inactive
CN(Cc1ccccc1)C(=O)COC(=O)c1ccccc1Nc1ccccc1	inactive
O=C1c2cccc3cccc(c23)C(=O)N1c1cccc(O)c1	inactive
Cc1ccc(/C=N/NC(=O)c2sccc2OCc2ccc(F)cc2)cc1	active
COc1ccc(NC(=O)c2sc(N)nc2-c2ccccc2)cc1	inactive
CCN(CC)CCN1C(=O)C2C(C(=O)Nc3ccc(Br)cc3)C3C=CC2(O3)C1C(=O)NC1CCCCC1 (stereo not given)	inactive
COc1ccc(CCNC(=O)c2cc3cccc4c3n2CC(C)S4)c(OC)c1OC (stereo not given)	active
Cc1cc([N+](=O)[O-])nn1Cc1ccc(F)cc1	inactive
Cc1ccn2c(=O)nc(SCC(=O)NCc3ccc(F)cc3)nc2c1	inactive
CC1=NN(C(=O)CCCc2ccccc2)C(O)(C(F)(F)F)C1 (stereo not given)	inactive
COc1ccc(CCNC(=O)CCc2c(C)nc3c(c(C)nn3-c3ccc(C)c(C)c3)c2C)c(OC)c1OC	inactive
COC(=O)CC(CC(=O)OC)n1cccc1	inactive
CC1=NN(C(=O)Cc2ccc(C)cc2)C(O)(c2cccnc2)C1 (stereo not given)	inactive
NC(=O)NC(=O)C(OC(=O)CCNS(=O)(=O)c1ccccc1)c1ccccc1 (stereo not given)	inactive
COc1cccc2[nH]c(C(=O)NCCc3ccccc3)cc12	inactive
COc1ccc(C(=O)NCCNc2ccc([N+](=O)[O-])cn2)cc1	inactive
COc1cc(N2C(=O)c3ccccc3C2=O)c(Cl)cc1C(=O)OCC(=O)N1CCOCC1	inactive
CC(C)c1nc(SCC(=O)NC(=O)NC(C)(C)C)n[nH]1	inactive
CC(C)S(=O)(=O)c1oc(-c2ccc(F)cc2)nc1S(=O)(=O)c1ccc(F)cc1	active
CCCCS(=O)(=O)c1oc(-c2cccs2)nc1S(=O)(=O)c1ccccc1	active
Cc1cc(C(F)(F)F)nn1-c1nc(-c2ccco2)cc(C(F)(F)F)n1	inactive
COc1cc2[nH]c(O)c(C=O)c2cc1OC	inactive
COc1ccc(C2(C)NC(=O)N(CC(=O)c3ccc4c(c3)OCO4)C2=O)cc1 (stereo not given)	inactive
OCC1(CCc2ccccc2)CCN(Cc2ccc3nsnc3c2)CC1	inactive
O=C(N=C1SC2CS(=O)(=O)CC2N1c1ccccc1)c1ccccc1 (stereo not given)	inactive
O=C(Cn1nnc(N2CCCCC2)n1)c1ccc(Cl)c(Cl)c1	inactive
NC1=NC(c2ccc([N+](=O)[O-])cc2)N(c2ccc(F)cc2)C(N)=N1 (stereo not given)	inactive
CCCNC(=O)c1ccc(Cl)c(Cl)c1	inactive
COc1cc(N=Cc2c(O)[nH]c3ccccc23)cc(OC)c1OC	active
CNC(=O)C(=O)N/N=C/c1ccccn1	inactive
COc1ccc(N=Cc2c(O)[nH]c3ccccc23)cc1OC	inactive
CC(C)(C)NC(=O)CSc1nc(-c2ccc(F)cc2)cc(C(F)(F)F)n1	active
c1ccc2cc(C3=NCCN3)ccc2c1	inactive
Cc1ccsc1C(=O)OCC(=O)NCCc1ccccc1	inactive
